Source of measurements: patent US20150239831A1

inhibition at 1 µM listing for selected compounds.
Molecular target: UniProt P41587
Sequence (P41587 24-438): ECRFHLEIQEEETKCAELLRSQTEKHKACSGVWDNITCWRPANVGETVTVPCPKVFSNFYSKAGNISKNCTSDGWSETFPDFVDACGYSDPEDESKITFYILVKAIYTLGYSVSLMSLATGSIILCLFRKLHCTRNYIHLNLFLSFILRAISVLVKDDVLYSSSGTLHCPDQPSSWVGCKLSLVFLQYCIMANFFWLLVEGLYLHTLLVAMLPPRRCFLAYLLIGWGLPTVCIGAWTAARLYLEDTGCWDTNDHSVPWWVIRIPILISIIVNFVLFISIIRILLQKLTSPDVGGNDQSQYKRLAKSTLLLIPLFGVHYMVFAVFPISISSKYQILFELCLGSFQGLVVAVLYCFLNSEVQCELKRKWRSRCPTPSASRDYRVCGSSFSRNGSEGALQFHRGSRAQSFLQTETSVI
Assay: Inhibition of VIP-induced cAMP elevation (% Activity cAMP)
Type: cell-based
Set-up: expressed in transfected cells; host or cells: HEK293 cells transfected with VIPR2 in pCDNA3.1 (as described)
Conditions: 1 μM, Batch 1
Note: state the figure and append the unit.

These solved cases illustrate the format of a correct answer.
>>> test_value("C=Cc1ccc(C(=O)NC[C@@H](O)C[C@@H](Cc2ccccc2)C(=O)N[C@H]2c3ccccc3C[C@H]2O)cc1")
"16.5%"
>>> test_value("C#CCCCC(=O)NC[C@@H](O)C[C@@H](Cc1ccccc1)C(=O)N[C@H]1c2ccccc2C[C@H]1O")
"20.2%"
>>> test_value("O=C(NC[C@@H](O)C[C@@H](Cc1ccccc1)C(=O)N[C@H]1c2ccccc2C[C@H]1O)c1ccco1")
"22.5%"
>>> test_value("CC(=O)c1ccc(S(=O)(=O)NC[C@@H](O)C[C@@H](Cc2ccccc2)C(=O)N[C@H]2c3ccccc3C[C@H]2O)cc1")
"61.1%"
>>> test_value("O=C(NC[C@@H](O)C[C@@H](Cc1ccccc1)C(=O)N[C@H]1c2ccccc2C[C@H]1O)C1CC1")
"21.1%"

Prompt: // inhibition at 1 µM lookup, key: `O=C(N[C@H]1c2ccccc2C[C@H]1O)[C@H](Cc1ccccc1)C[C@H](O)CNS(=O)(=O)c1ccc(C(F)(F)F)cc1`
Completion: 63.1%

Prompt: What do you get for `O=C(NC[C@@H](O)C[C@@H](Cc1ccccc1)C(=O)N[C@H]1c2ccccc2C[C@H]1O)c1cccnc1` ?
Completion: 13.5%

Prompt: What do you get for `O=C(CCl)NC[C@@H](O)C[C@@H](Cc1ccccc1)C(=O)N[C@H]1c2ccccc2C[C@H]1O` ?
Completion: 19.2%

Prompt: What do you get for `O=C(NC[C@@H](O)C[C@@H](Cc1ccccc1)C(=O)N[C@H]1c2ccccc2C[C@H]1O)c1cccc(Br)c1` ?
Completion: 18.5%

Prompt: What do you get for `Cc1ccc(S(=O)(=O)NC[C@@H](O)C[C@@H](Cc2ccccc2)C(=O)N[C@H]2c3ccccc3C[C@H]2O)c(C)c1` ?
Completion: 10.9%

Prompt: What do you get for `O=C(Cc1cccc(Cl)c1)NC[C@@H](O)C[C@@H](Cc1ccccc1)C(=O)N[C@H]1c2ccccc2C[C@H]1O` ?
Completion: 16%

Prompt: What do you get for `CC(C)(C)c1ccc(C(=O)NC[C@@H](O)C[C@@H](Cc2ccccc2)C(=O)N[C@H]2c3ccccc3C[C@H]2O)cc1` ?
Completion: 16%

Prompt: What do you get for `O=C(N[C@H]1c2ccccc2C[C@H]1O)[C@H](Cc1ccccc1)C[C@H](O)CNS(=O)(=O)c1cccc([N+](=O)[O-])c1` ?
Completion: 15.2%

Prompt: What do you get for CC(C)(C)c1ccc(S(=O)(=O)NC[C@@H](O)C[C@@H](Cc2ccccc2)C(=O)N[C@H]2c3ccccc3C[C@H]2O)cc1 [A, reference compound] ?
Completion: 13%

Prompt: What do you get for `N#Cc1ccc(S(=O)(=O)NC[C@@H](O)C[C@@H](Cc2ccccc2)C(=O)N[C@H]2c3ccccc3C[C@H]2O)cc1` ?
Completion: 43.6%
